This section presents compounds with their documented IC50 values.
testedTarget: Sodium-dependent dopamine transporter (Rattus norvegicus)
Sequence (P23977 whole entry): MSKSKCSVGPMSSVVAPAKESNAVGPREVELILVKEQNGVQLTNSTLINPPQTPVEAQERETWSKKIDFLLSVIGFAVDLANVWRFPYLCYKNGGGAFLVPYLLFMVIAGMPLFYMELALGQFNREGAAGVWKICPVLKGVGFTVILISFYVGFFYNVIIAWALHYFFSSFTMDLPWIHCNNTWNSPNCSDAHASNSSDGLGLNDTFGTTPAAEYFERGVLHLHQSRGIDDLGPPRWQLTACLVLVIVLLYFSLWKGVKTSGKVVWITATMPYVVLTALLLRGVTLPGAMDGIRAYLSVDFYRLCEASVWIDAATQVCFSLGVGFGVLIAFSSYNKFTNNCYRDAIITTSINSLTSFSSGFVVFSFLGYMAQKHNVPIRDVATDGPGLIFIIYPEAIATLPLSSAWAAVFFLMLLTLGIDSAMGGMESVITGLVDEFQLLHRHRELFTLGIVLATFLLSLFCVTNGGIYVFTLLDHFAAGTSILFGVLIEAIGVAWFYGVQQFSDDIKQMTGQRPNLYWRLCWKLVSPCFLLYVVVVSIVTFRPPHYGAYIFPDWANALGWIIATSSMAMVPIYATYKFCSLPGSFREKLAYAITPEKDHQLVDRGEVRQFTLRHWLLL
testDetails: Inhibition of uptake of dopamine (DA) rat brain striatum
Kindly provide the numeric value in µM only, without the unit symbol.

{"columns": ["smilesText", "observedValue"],
 "data": [
  ["Clc1ccc2[nH]cc(CC3CCNCC3)c2c1", 12],
  ["Fc1ccc2[nH]cc(CC3CCNCC3)c2c1", 7],
  ["Oc1ccc2c(CCC3CCNCC3)c[nH]c2c1", 0.15],
  ["c1ccc2c(CC3CCNCC3)c[nH]c2c1", 20],
  ["Cn1cc(CCC2CCNCC2)c2ccccc21", 30]
]}

Enquiry: Quick check: IC50 of Clc1ccc2[nH]cc(CCC3CCNCC3)c2c1 ?
Return: 1.5

Enquiry: Quick check: IC50 of c1ccc(-c2[nH]c3ccccc3c2CCC2CCNCC2)cc1 ?
Return: 3.5
